# assayed target: recombinant human SYK360-635 (Homo sapiens, UniProt P43405)
# Construct: made in house
# assay: Determination of IC50 of Spleen Tyrosine Kinase (SYK) inhibition, 33P ATP filtration assay
# Type: biochemical
# condition notes: SYK aa 360-635 0.5 nM; ATP 20 μM, peptide 5 μM, 0.1% BSA; read-out: SYK_ENZYME_FILTRATION/v1, BSA
pIC50: −log10 of the molar value.
Hi, to clarify the labels: true (1) covers pIC50 from 8 upward, false (0) covers anything below 8.

Sample answers from the record:
>  <compound>
Cn1nc(-c2cnc3[nH]cc(C(=O)NC4(C#N)CC4)c3n2)c2ccc(F)cc21 [Example I-387]

>  <assayed target>
recombinant human SYK360-635 (Homo sapiens, UniProt P43405)

>  <class name>
false (0)

$$$$
>  <compound>
Cn1nc(-c2cnc3[nH]cc(C(=O)NC(C)(C)C#N)c3n2)c2ccc(F)cc21 [Example I-377]

>  <assayed target>
recombinant human SYK360-635 (Homo sapiens, UniProt P43405)

>  <class name>
true (1)

$$$$
>  <compound>
CC(C)(C)NC(=O)c1c[nH]c2ncc(-c3nn(CCCO)c4ccc(OC(F)F)cc34)nc12 [Example I-298]

>  <assayed target>
recombinant human SYK360-635 (Homo sapiens, UniProt P43405)

>  <class name>
true (1)

$$$$

Query string: pIC50 >= 8 for Cn1cc(Cn2nc(-c3cnc4[nH]cc(C(=O)NC(C)(C)C)c4n3)c3cc(OC(F)F)ccc32)cn1 [Example I-274] ?
Result string: true (1)

Query string: pIC50 >= 8 for CC(C)(C)NC(=O)c1c[nH]c2ncc(-c3cccc4ccncc34)nc12 [Example I-444] ?
Result string: false (0)

Query string: pIC50 >= 8 for C[C@@H](NC(=O)c1c[nH]c2ncc(-c3nccc4ccccc34)nc12)C(=O)N1CC(C#N)C1 [Example I-77] ?
Result string: false (0)
